Field: t½. Provide a value for each of the molecules that follow.
# Tested on: HMM-mfMSR1 (monkey MSR1 extracellular domain)
# Sequence (as listed by the source): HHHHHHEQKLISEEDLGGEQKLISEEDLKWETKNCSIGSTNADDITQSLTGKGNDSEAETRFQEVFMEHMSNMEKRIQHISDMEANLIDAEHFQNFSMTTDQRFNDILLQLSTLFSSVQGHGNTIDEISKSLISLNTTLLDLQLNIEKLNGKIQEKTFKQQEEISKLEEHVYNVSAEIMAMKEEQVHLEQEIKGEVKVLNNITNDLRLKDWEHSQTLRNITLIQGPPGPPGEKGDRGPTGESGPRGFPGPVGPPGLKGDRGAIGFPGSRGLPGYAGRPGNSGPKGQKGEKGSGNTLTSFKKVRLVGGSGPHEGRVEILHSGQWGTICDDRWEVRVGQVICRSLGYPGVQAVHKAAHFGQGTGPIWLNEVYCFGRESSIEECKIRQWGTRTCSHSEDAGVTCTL
# test name: Biacore surface plasmon resonance binding kinetics of anti-MSR1 mAbs, antibody-capture format
# measurement context: 25° C.; analyte HMM-mfMSR1; dissociative half-life; NB = no binding observed
One number for each entry, in h.

INSERT INTO results (molecule, readout_number) VALUES
  ('H1H21227N-N297D: "The 21227N antibody was also produced as a third version with a N297D mutation" (antibody, V domains shown) VH: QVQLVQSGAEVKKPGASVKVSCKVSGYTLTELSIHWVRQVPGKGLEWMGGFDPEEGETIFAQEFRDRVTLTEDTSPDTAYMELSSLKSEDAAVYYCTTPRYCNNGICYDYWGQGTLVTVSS VL: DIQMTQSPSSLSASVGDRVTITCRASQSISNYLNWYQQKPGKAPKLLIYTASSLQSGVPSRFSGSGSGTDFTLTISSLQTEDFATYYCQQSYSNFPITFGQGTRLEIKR', 4.78);

The recorded t½ for entry H1H21231N-N297Q: modified version of "21231N (H1H21231N-N297Q) anti-MSR1 antibodies" with "a N297Q single point mutation" (antibody, V domains shown) VH: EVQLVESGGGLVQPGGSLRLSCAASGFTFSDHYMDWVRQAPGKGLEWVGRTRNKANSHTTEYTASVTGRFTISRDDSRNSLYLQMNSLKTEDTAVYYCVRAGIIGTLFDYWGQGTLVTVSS VL: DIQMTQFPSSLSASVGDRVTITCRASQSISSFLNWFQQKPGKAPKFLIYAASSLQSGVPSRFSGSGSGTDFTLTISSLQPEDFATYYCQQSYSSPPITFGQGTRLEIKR equals 2.13
